The measured values listed here are drawn from patent US5892029A.

Quick list: plasma urea N per entry.
# Format: in vivo, mice
# condition-info: protocol I: 100 μmol/kg × 10 daily i.p.; 21 d; mean ± SD
# output: bare number, implied unit percent control

Cn1ccc(C(=O)NCCOCCNC(=O)c2ccn(C)c(=O)c2O)c(O)c1=O	86
Cn1ccc(C(=O)NCCCCCNC(=O)c2ccn(C)c(=O)c2O)c(O)c1=O	101
Cn1ccc(C(=O)NCCN(CCNC(=O)c2ccn(C)c(=O)c2O)CCN(CCNC(=O)c2ccn(C)c(=O)c2O)CCNC(=O)c2ccn(C)c(=O)c2O)c(O)c1=O	225

Using the record for Cn1ccc(C(=O)NCCN(CCNC(=O)c2ccn(C)c(=O)c2O)CCNC(=O)c2ccn(C)c(=O)c2O)c(O)c1=O , state its measured plasma urea N. 120

* * *

# Type: in vivo, mice
# condition-info: protocol I: 100 μmol/kg × 10 daily i.p.; 11 d; mean ± SD
quantity-measured: plasma urea N (percent control)
# output: bare number, implied unit percent control

Some compounds with recorded plasma urea N:
Cn1ccc(C(=O)NCCN(CCNC(=O)c2ccn(C)c(=O)c2O)CCNC(=O)c2ccn(C)c(=O)c2O)c(O)c1=O	112
Cn1ccc(C(=O)NCCOCCNC(=O)c2ccn(C)c(=O)c2O)c(O)c1=O	83
Cn1ccc(C(=O)NCCCCCNC(=O)c2ccn(C)c(=O)c2O)c(O)c1=O	89

Using the record for Cn1ccc(C(=O)NCCN(CCNC(=O)c2ccn(C)c(=O)c2O)CCN(CCNC(=O)c2ccn(C)c(=O)c2O)CCNC(=O)c2ccn(C)c(=O)c2O)c(O)c1=O , state its measured plasma urea N. 223

* * *

Quick list: body weight per entry.
# Assay type: in vivo, mice
# condition-info: protocol I: 100 μmol/kg × 10 daily i.p.; 11 d; mean ± SD

Cn1ccc(C(=O)NCCCCCNC(=O)c2ccn(C)c(=O)c2O)c(O)c1=O	102 ± 5 percent control
Cn1ccc(C(=O)NCCOCCNC(=O)c2ccn(C)c(=O)c2O)c(O)c1=O	103 ± 5 percent control
Cn1ccc(C(=O)NCCN(CCNC(=O)c2ccn(C)c(=O)c2O)CCNC(=O)c2ccn(C)c(=O)c2O)c(O)c1=O	102 ± 1 percent control

Next molecule, please.
Using the record for Cn1ccc(C(=O)NCCN(CCNC(=O)c2ccn(C)c(=O)c2O)CCN(CCNC(=O)c2ccn(C)c(=O)c2O)CCNC(=O)c2ccn(C)c(=O)c2O)c(O)c1=O , state its measured body weight. 92 ± 6 percent control
